This collection of values is drawn from patent US10030016B2.

# System: UniProtKB O15530
# Sequence (O15530 51-359): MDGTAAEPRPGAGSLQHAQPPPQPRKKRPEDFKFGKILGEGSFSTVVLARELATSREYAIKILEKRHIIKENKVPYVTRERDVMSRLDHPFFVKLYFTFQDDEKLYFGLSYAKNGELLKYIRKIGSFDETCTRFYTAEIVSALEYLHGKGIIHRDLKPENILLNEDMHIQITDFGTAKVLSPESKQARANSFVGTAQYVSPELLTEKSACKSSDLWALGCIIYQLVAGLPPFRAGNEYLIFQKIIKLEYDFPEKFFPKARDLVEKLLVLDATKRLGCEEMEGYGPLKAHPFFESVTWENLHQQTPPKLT
# Assay comment: PDK1 kinase assay (coupled PDK1/AKT/FAM-crosstide assay, IMAP fluorescence polarization)
# Format: biochemical
# Condition: inhibition of PDK1 in vitro
Endpoint label: IC50

[[record]]
compound = "N#Cc1cnc(NCc2ccc(-c3c[nH]c4ncnc(N)c34)cc2)c(-c2ncco2)c1"
measured = "1000 to 5000 nM"

[[record]]
compound = "C[C@H](NC(=O)c1cccnc1NCc1ccc(-c2cnc(N)cn2)cc1)c1ccc(F)c(F)c1"
measured = "100 to 1000 nM"


Batch request: IC50 per item, same order as input.
1. Nc1ncnn2c(-c3ccc(CNc4ncc(C(F)(F)F)cc4C(=O)Nc4ccc(F)cc4)cc3)ccc12
2. C[C@H](NC(=O)c1cc(C#N)cnc1NCc1ccc(-c2cnc3[nH]ncc3c2)nc1)c1ccc(F)cc1
3. Cc1n[nH]c2ncc(-c3ccc(CNc4ncc(C#N)nc4C(=O)N[C@@H](C)c4ccc(F)c(F)c4)cc3)cc12
4. C[C@H](NC(=O)c1cc(C#N)cnc1N[C@H](CC(=O)N(C)C)c1ccc(-c2c[nH]c3ncnc(N)c23)cc1)c1ccc(F)cc1
5. C[C@H](NC(=O)c1nc(C#N)cnc1NCc1ccc(-c2cnc(N)c(CCC3CCNC3)n2)cc1)c1ccc(F)c(F)c1 (single isomer, unassigned) [Example 80]
6. Nc1ncnc2[nH]cc(-c3ccc(CNc4ncc(C(F)(F)F)cc4C(=O)NCc4ccc(F)c(F)c4)cc3)c12
7. C[C@H](NC(=O)c1nc(C#N)cnc1NCC1CCC(c2cc3c(N)ncnc3n2C)CC1)c1ccc(F)c(F)c1 (stereo partly shown)
8. N#Cc1cnc(NCc2ccc(-c3ccc(N)nc3)cc2)c(C(=O)NCc2cncc(F)c2)c1

< 100 nM
< 100 nM
< 100 nM
100 to 1000 nM
< 100 nM
< 100 nM
> 5000 nM
< 100 nM

Batch request: IC50 per item, same order as input.
1. Cc1cc(-c2ccc(CNc3ncc(C(F)(F)F)cc3C(=O)NCc3ccc(F)c(F)c3)cc2)cnc1N
2. CC(C)(N)CCc1nc(-c2ccc(CNc3ncc(C(F)(F)F)cc3C(=O)Nc3ccc(F)cc3)cc2)cnc1N
3. CC(=O)Nc1ccc(-c2ccc(CNc3ncc(C#N)cc3C(=O)N[C@@H](C)c3ccc(F)cc3)cc2)cn1
4. Cn1cnc2cnc3ccc(-c4cnc(CNc5ncccc5C(=O)NCc5ccc(F)c(F)c5)s4)cc3c21

1: < 100 nM; 2: < 100 nM; 3: < 100 nM; 4: < 100 nM

Batch request: IC50 per item, same order as input.
1. Nc1ncc(-c2ccc(CNc3ncc(C(F)(F)F)cc3C(=O)Nc3ccc(F)cc3)cc2)nc1CCC1CCCNC1 (stereo not shown)
2. CC(Nc1ncc(C#N)nc1C(=O)N[C@@H](C)c1ccc(F)c(F)c1)c1ccc(-c2cnc3[nH]nc(N)c3c2)cc1 (stereo in doubt)
3. N#Cc1ccc(NC(=O)c2cc(C(F)(F)F)cnc2NCc2ccc(-c3cnc4[nH]nc(N)c4c3)cc2)cc1
4. C[C@H](NC(=O)c1cc(C#N)cnc1NCc1ccc(-c2cnc(N)nc2)cc1)c1ccc(F)cc1
5. Nc1cnc(-c2ccc(CNc3ncc(C(F)(F)F)cc3C(=O)Nc3ccc(F)cc3)cn2)cn1
6. Nc1n[nH]c2ncc(-c3ccc(CNc4ncc(C(F)(F)F)cc4C(=O)Nc4ccc(F)cc4)cc3)nc12
7. C[C@H](NC(=O)c1nc(C#N)cnc1NCc1ccc(-c2cnc(N)c(N3CCC[C@@H](N)C3)n2)cc1)c1ccc(F)c(F)c1
8. Nc1n[nH]c2ncc(-c3ccc(CNc4ncc(C(F)(F)F)cc4C(=O)NCC4CCCC4)cc3)cc12

< 100 nM
> 5000 nM
< 100 nM
< 100 nM
100 to 1000 nM
< 100 nM
< 100 nM
< 100 nM

Batch request: IC50 per item, same order as input.
1. Cc1cccc(Cl)c1NC(=O)c1cc(C(F)(F)F)cnc1NCc1ccc(-c2cnc3[nH]nc(N)c3c2)cc1
2. C[C@H](NC(=O)c1nc(C#N)cnc1NCc1ccc(-c2cnc3[nH]nc(N)c3n2)cc1)c1ccc(F)c(F)c1
3. C[C@H](NC(=O)c1cc(C#N)cnc1NCc1ccc(-c2cnc3[nH]nc(N)c3n2)cc1)c1ccc(F)cc1

1: 1000 to 5000 nM; 2: < 100 nM; 3: < 100 nM

Batch request: IC50 per item, same order as input.
1. C[C@H](NC(=O)c1cc(C#N)cnc1NCc1ccc(-c2ccc(N)nc2)cc1)c1ccc(F)cc1
2. C[C@H](NC(=O)c1cc(C#N)cnc1NCc1ccc(-c2cnc(N)c(O[C@@H]3CCC[C@H]3N)n2)cc1)c1ccc(F)cc1
3. C[C@H](NC(=O)c1cc(C#N)cnc1N[C@H](CC(=O)O)c1ccc(-c2c[nH]c3ncnc(N)c23)cc1)c1ccc(F)cc1

1. < 100 nM
2. < 100 nM
3. 100 to 1000 nM
